These measurements were taken from the supplement of paper PMC8728848.

Tested On: Fuc(a1-2)[Gal(a1-3)]Gal
Test Details: glycan array binding signal (z-score within array); higher = stronger binding
Experimental Setup: glycan notation: IUPAC condensed, linker removed
Only a selection was taken, and the strongest signals are over-represented in it overall.
Kindly supply the reported glycan array binding signal (z-score) values for the records listed here.

So, LBL-152 (Laetiporus bicolor), B0D650 (protein) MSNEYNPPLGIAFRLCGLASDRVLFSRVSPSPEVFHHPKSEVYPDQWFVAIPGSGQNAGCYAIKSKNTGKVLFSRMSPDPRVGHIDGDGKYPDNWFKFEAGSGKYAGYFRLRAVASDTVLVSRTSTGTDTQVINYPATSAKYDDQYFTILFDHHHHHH ? Its glycan array binding signal (z-score) was -0.145

# glycan array binding signal (z-score) of AT3G44510(29) (Arabidopsis thaliana), F4J341 (protein) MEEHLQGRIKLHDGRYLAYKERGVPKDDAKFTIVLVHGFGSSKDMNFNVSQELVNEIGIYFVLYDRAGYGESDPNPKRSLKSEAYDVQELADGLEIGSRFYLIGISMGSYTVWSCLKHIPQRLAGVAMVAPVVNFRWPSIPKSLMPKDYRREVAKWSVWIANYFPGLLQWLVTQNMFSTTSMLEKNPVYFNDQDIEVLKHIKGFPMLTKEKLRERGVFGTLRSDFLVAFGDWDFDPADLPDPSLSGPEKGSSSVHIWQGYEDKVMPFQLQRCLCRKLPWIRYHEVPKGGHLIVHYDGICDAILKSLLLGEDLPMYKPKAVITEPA = 2.08

Short answer for Gal 1 (Mus musculus), P16045 (protein) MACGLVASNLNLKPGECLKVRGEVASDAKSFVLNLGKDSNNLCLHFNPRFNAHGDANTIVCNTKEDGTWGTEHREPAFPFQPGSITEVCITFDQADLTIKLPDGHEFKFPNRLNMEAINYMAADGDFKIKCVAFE : glycan array binding signal (z-score) was -0.365

Looking up pTFF2 (Sus scrofa), P01359 (protein) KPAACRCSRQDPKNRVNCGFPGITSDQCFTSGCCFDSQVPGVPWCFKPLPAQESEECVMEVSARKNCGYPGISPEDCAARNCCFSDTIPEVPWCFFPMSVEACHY , I found its glycan array binding signal (z-score) recorded as -0.204
